Molecular target: T1, UNK ZnF1-3 (human, UniProt Q9C0B0 31-174)
T1 sequence: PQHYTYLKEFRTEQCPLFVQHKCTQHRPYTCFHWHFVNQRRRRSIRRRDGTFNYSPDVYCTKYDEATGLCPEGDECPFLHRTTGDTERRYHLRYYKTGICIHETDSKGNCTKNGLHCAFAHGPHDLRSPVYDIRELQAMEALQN
Experiment: nsRBNS (natural sequence RNA bind-n-seq); RBNS binding buffer (assumed for nsRBNS): 25 mM Tris pH 7.5, 150 mM KCl, 3 mM MgCl2, 0.01% Triton X-100, 500 ug/ml BSA, 20 U/ml SUPERase-In, 4 C; UNK is unkempt and MSI1 is Musashi-1; names of the RNAs are library labels; protein concentration not given here; high values mean tight binding
Whole data set: some 24,000 sequences, median “enrichment r” near 0.99, cut for the highest 2% near 3.7. The list comes from a sample in which the highest values are over-represented; it also holds close analogues and randomly drawn sequences.
Collected binding signal values appear next to each entry.
Give just the number in enrichment R; leave the unit off.

binder="chr9:115598534:115598535:+_ENSG00000148158_ENST00000374232|hu_mus|motif|central (ssRNA) RNA: GGGAGUUCUACAGUCCGACGAUCCAGCUUAUAGCCUCCGGUGACGUGCUUGACUGACUCACCCACUCUGCUCAGCAAUGCGGUCCCUUGCUUCUUGUAGGCAUUCAGGUCCUUAGCAGUGAGGAACACAUUGAAGUGUUCAUUCAACAGAGGAUUGAGCAUCA" units_text="enrichment R" reported_measurement=0.691
binder="chr12:39756943:39756944:-_ENSG00000139116_ENST00000544797|hu_mus|hu_hu_hu_mus_False|28_68 (ssRNA) RNA: GGGAGUUCUACAGUCCGACGAUCGGUUUGGCUGUUACCCCCAAGGGAAUCCUGCAAGAGUCUUGUCAGCUUGGAAUCUCUGUAAGGGACAUGGGUGGCUCUCUUGCUCUUGUCUCCCAAGGCGCUGAUUACAUUCCCAAGAGCCAACAGAGGAUUGAGCAUCA" units_text="enrichment R" reported_measurement=0.792
binder="chr12:133780691:133780692:+_ENSG00000090612_ENST00000541009|hu_hu|motif|central (ssRNA) RNA: GGGAGUUCUACAGUCCGACGAUCUCAUAUGGUUUUUCACCUGAAUGAGUUCUCAUGUGUAUAAUUAGGUAUGACUUGCUGCGGAAAGCUUUCCCACAUUCACUGCACCCAUAAGGCUUUUCCCCUGCAUGAGUUCGCUGAUGUCAACAGAGGAUUGAGCAUCA" units_text="enrichment R" reported_measurement=0.705
binder="chr1:130270616:130270617:-_ENSMUSG00000026356_ENSMUST00000027602|mus_hu|FALSE|FALSE (ssRNA) RNA: GGGAGUUCUACAGUCCGACGAUCGUAAUGGUAAUUAAAAGCCAUUUCAAUGUCCAAACCAACAAACUCAGUUAGAUGUCUAUGGGUAUUAGAGUCUUCCGCUCUGAAUACUGGUCCAAUAGAGAAAACCUUCUCAAAAUCAGCCAACAGAGGAUUGAGCAUCA" units_text="enrichment R" reported_measurement=0.771

Qu. Using the record for 17503471_17513584_185_CDS_ENSG00000151552_ENST00000428702|human|control|control (ssRNA) RNA: GGGAGUUCUACAGUCCGACGAUCCUUAAAGAGAGACUUGGAUUUGGCAUUGCCCCCGGCCCAUCCUCCAGCAACGCAAAGAAUUGCAUCCACCUUCUCUUCACCCAAGAGCUUUCCAACCUCAGCAGUCACCCAGUUGCGGGCCAACAGAGGAUUGAGCAUCA , state its measured binding signal.
Ans. 1.33

Qu. In one line, give reported binding signal of the entry chr14:79828021:79828022:+_ENSMUSG00000043881_ENSMUST00000061222|mus_mus|motif|central (ssRNA) RNA: GGGAGUUCUACAGUCCGACGAUCAGGAUCAUAGCAGAGCAUGCGCUUACUGUUGACAGCGUAAAGAUAAUUCUGAACCACGGUUAGUUCAAAUGAAUAAAAGGAAUGUGGUACAGGAGCCACCAAUGCCCAUUGGUUCCUCUGCAACAGAGGAUUGAGCAUCA .
Ans. 1.02

Qu. Input chr1:90180492:90180493:+_ENSG00000171488_ENST00000370454|hu_hu|motif|central (ssRNA) RNA: GGGAGUUCUACAGUCCGACGAUCUUUCAUUUGCUCCCGGACGUCAGAAGGCAGAGUUUCAAACAGAGCAUCUUCGGCAACGGAACCAGCUCGCUUCAGAGCCCGACAGUCACCCAGUUCAGGAGGGAGGAUUUCAAAGUGAUUCAACAGAGGAUUGAGCAUCA , output reported binding signal.
Ans. 3.35
